# Test system: Human primary T cell
# Assay notes: IL-2 ELISA, human primary T cell, anti-CD3+CD28+ whole cell assay
# Type: cell-based
# Conditions: T-cell; IL-2 by ELISA, human primary T cells stimulated with anti-CD3+CD28
Measure name: IC50

Kindly state the measured IC50 obtained for CC1(C)CC(CNc2nc(Nc3ccc4c(c3)-n3nnnc3CO4)ncc2F)C(C)(C)N1 (stereo not drawn) with Human primary T cell. < 250 nM

Kindly state the measured IC50 obtained for CN1C(C)(C)CC(Nc2nc(Nc3ccc4c(c3)-c3nnnn3C(C)(C)O4)ncc2F)CC1(C)C with Human primary T cell. < 250 nM

* * *

Below is a list of entries, each paired with its recorded pIC50 value.
# Assay target: PKC-beta (Homo sapiens, UniProt P05771)
# Construct: purchased Oxford Biomedical Research
# Sequence (P05771 whole entry): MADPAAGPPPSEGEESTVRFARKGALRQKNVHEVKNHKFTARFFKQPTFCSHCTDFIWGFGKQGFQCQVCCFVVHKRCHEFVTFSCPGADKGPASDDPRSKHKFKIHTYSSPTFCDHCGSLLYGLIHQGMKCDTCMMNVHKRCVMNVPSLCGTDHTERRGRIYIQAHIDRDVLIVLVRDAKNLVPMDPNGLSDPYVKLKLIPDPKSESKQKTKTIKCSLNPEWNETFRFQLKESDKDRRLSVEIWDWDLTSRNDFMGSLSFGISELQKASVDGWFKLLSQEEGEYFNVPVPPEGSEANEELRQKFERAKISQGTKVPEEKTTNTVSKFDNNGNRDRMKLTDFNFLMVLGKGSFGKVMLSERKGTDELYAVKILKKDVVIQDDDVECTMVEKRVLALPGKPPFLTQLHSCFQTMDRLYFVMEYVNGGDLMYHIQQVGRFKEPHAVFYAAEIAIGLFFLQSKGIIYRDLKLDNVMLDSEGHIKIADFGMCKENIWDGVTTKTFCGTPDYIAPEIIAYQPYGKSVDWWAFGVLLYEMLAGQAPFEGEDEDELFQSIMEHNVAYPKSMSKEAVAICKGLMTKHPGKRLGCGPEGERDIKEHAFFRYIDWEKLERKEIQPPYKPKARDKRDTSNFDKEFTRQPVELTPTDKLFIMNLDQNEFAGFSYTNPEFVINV
# Assay notes: Protein Kinase C assay (fluorescence polarization), PKC-beta
# Type: biochemical
# Protocol: The inhibition of PKC activity was measured by monitoring the production of phosphorylated peptide by fluorescence polarization at different concentrations of the inhibitor. […] At the end of this time, a combination of quench (EDTA) and detection (peptide tracer and antibody) reagents was added using the protocol of Invitrogen P2748 (Carlsbad, Calif.), a Protein Kinase C Fluorescence polarization Assay Kit. […]
pIC50: −log10 of the molar value.

Reference set, count: 5
* CN1C(C)(C)CC(Nc2nc(Nc3ccc4c(c3)-n3nnnc3C3(CCC3)O4)ncc2F)CC1(C)C [Compound 1-12] | > 6.60
* CC1(C)CC(Nc2nc(Nc3ccc4c(c3)-n3nnnc3C(C)(C)O4)ncc2F)CC(C)(C)N1 [Compound 1-7] | > 6.60
* CN1C(C)(C)CC(Nc2nc(Nc3ccc4c(c3)-n3nnnc3C(C)(C)O4)ncc2F)CC1(C)C [Compound 1-8] | > 6.60
* CC1(C)CC(CNc2nc(Nc3ccc4c(c3)-n3nnnc3CO4)ncc2F)C(C)(C)N1 (stereo not drawn) [Compound 2-1] | > 6.60
* CC1C[C@H](CNc2nc(Nc3ccc4c(c3)-n3nnnc3C(C)(C)O4)ncc2F)C(C)(C)N1 (stereo partly drawn) [Compound 2-8] | 6.30 to 6.60

Item CC1C[C@@H](CNc2nc(Nc3ccc4c(c3)-n3nnnc3C(C)(C)O4)ncc2F)C(C)(C)N1 (stereo partly drawn) [Compound 2-7] has what recorded pIC50? > 6.60
